biological target: Orexin/Hypocretin receptor type 1 (Homo sapiens, UniProt O43613); experiment: Antagonist activity at human OX1 receptor assessed as Ca2+ flux by FLIPR assay
Sequence (O43613 whole entry): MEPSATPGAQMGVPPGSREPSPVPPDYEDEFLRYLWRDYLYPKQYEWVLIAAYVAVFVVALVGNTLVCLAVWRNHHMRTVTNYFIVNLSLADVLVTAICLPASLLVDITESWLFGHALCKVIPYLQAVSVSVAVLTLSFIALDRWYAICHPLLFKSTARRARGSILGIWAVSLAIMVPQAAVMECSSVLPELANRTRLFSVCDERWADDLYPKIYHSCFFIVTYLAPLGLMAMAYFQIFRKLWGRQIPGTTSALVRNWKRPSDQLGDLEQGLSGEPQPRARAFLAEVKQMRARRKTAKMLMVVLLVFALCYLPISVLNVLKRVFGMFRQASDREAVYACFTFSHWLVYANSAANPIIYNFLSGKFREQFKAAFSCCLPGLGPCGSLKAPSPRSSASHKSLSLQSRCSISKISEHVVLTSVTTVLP
IC50 overview

{"chemical_smiles": "Cc1ccc(-n2nccn2)c(C(=O)N2C[C@H](CCc3ccc(F)cn3)CC[C@H]2C)c1", "measurement_target": "Orexin/Hypocretin receptor type 1 (Homo sapiens, UniProt O43613)", "unit_info": "µM", "IC50": 0.861}
{"chemical_smiles": "Cc1ccc(-n2nccn2)c(C(=O)N2C[C@H](C#Cc3ccnc(CO)c3)CC[C@H]2C)c1", "measurement_target": "Orexin/Hypocretin receptor type 1 (Homo sapiens, UniProt O43613)", "unit_info": "µM", "IC50": 0.298}
{"chemical_smiles": "Cc1ccc(-n2nccn2)c(C(=O)N2C[C@H](COc3ccc(F)cn3)CC[C@H]2C)c1", "measurement_target": "Orexin/Hypocretin receptor type 1 (Homo sapiens, UniProt O43613)", "unit_info": "µM", "IC50": 0.016}
{"chemical_smiles": "Cc1ccc(-n2nccn2)c(C(=O)N2C[C@H](C#Cc3cccnc3)CC[C@H]2C)c1", "measurement_target": "Orexin/Hypocretin receptor type 1 (Homo sapiens, UniProt O43613)", "unit_info": "µM", "IC50": 0.083}
{"chemical_smiles": "Cc1ccc(-n2nccn2)c(C(=O)N2C[C@H](/C=C/c3ccc(F)cn3)CC[C@H]2C)c1", "measurement_target": "Orexin/Hypocretin receptor type 1 (Homo sapiens, UniProt O43613)", "unit_info": "µM", "IC50": 0.14}
{"chemical_smiles": "Cc1ccc(-n2nccn2)c(C(=O)N2C[C@H](C#Cc3cccc(CO)c3)CC[C@H]2C)c1", "measurement_target": "Orexin/Hypocretin receptor type 1 (Homo sapiens, UniProt O43613)", "unit_info": "µM", "IC50": 0.0063}
{"chemical_smiles": "Cc1ccc(-n2nccn2)c(C(=O)N2C[C@H](C#Cc3ccc(F)cn3)CC[C@H]2C)c1", "measurement_target": "Orexin/Hypocretin receptor type 1 (Homo sapiens, UniProt O43613)", "unit_info": "µM", "IC50": 0.031}
{"chemical_smiles": "Cc1ccc(-n2nccn2)c(C(=O)N2C[C@H](C#Cc3ccccn3)CC[C@H]2C)c1", "measurement_target": "Orexin/Hypocretin receptor type 1 (Homo sapiens, UniProt O43613)", "unit_info": "µM", "IC50": 0.1}
{"chemical_smiles": "Cc1ccc(-n2nccn2)c(C(=O)N2C[C@H](/C=C\\c3ccc(F)cn3)CC[C@H]2C)c1", "measurement_target": "Orexin/Hypocretin receptor type 1 (Homo sapiens, UniProt O43613)", "unit_info": "µM", "IC50": 0.706}
{"chemical_smiles": "Cc1ccc(-n2nccn2)c(C(=O)N2C[C@H](C#Cc3cccc(CO)n3)CC[C@H]2C)c1", "measurement_target": "Orexin/Hypocretin receptor type 1 (Homo sapiens, UniProt O43613)", "unit_info": "µM", "IC50": 0.059}
{"chemical_smiles": "Cc1ccc(-n2nccn2)c(C(=O)N2C[C@H](C#Cc3cnccc3O)CC[C@H]2C)c1", "measurement_target": "Orexin/Hypocretin receptor type 1 (Homo sapiens, UniProt O43613)", "unit_info": "µM", "IC50": 3.88}

====

assay: Plasma protein binding in human; assay type: ADME, cell-free; conditions: read-out: PPB (converted)

{"chemical_smiles": "Cc1ccc(-n2nccn2)c(C(=O)N2C[C@H](C#Cc3ccc(F)cn3)CC[C@H]2C)c1", "fraction unbound": 0.009}
